Where these numbers come from: ChEMBL document CHEMBL1156824

Entries and their CL values follow.
# Species on record: Homo sapiens
# protocol: Hepatic clearance in human
# condition-details: in vivo
Only the number, expressed in mL/min/kg, is required.

>>> meas_value("C[C@H]1O[C@H](O[C@H]2[C@H](O)[C@@H](O)[C@@H](O[C@H]3[C@H](O)[C@@H](O)C(O)O[C@@H]3CO)O[C@@H]2CO)[C@H](O)[C@@H](O)[C@@H]1N[C@H]1C=C(CO)[C@@H](O)[C@H](O)[C@H]1O (some centres undefined)")
0.1

Enquiry: // query CL value for entry CCN1CCC[C@H]1CNC(=O)c1c(OC)ccc(Br)c1OC [REMOXIPRIDE]
Return: 1.3

Enquiry: // query CL value for entry `CCC[C@@H]1C[C@@H](C(=O)N[C@@H]([C@H]2O[C@H](SC)[C@H](O)[C@@H](O)[C@H]2O)[C@H](C)Cl)N(C)C1`
Return: 3.9

Enquiry: // query CL value for entry CN1C2CCCC1CC(NC(=O)c1nn(C)c3ccccc13)C2 (centres undefined)
Return: 8.1
